molecular target: human NK3 receptor (Homo sapiens, UniProt P29371); test: Binding potency of the test substances to NK3-receptors in vitro ([3H]-SR 142801 displacement); set-up: expressed in transfected cells; host or cells: CHO cells (membrane preparation); settings: human NK3-receptor in CHO cell membranes, [3H]-SR 142801 (osanetant); average of at least three measurements; read-out: pKi, binding potency to NK3-receptors (converted)
Sequence (P29371 whole entry): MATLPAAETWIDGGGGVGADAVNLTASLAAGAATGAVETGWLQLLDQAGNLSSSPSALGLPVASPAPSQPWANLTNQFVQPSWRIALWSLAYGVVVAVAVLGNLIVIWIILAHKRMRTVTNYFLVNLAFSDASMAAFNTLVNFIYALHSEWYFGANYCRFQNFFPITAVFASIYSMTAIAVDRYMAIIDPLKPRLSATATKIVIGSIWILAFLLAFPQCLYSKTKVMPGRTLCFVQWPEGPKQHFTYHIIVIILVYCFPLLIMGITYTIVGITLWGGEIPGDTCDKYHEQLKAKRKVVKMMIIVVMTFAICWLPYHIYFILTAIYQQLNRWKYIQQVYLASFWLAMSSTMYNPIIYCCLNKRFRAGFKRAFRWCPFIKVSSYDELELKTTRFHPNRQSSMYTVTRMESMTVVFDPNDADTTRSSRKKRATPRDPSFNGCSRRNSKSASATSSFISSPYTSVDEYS
Field: Ki. Provide a value for each of the compounds that follow.
Answer format: numeric, µM implied, no suffix.

Tell me the measured Ki of CN(C)C(=O)C1(N2CCCCC2)CCN(CCC(CN(C)C(=O)Cc2c[nH]c3ccccc23)c2ccc(Cl)c(Cl)c2)CC1 (centres unmarked) , please. 0.0631

Tell me the measured Ki of CN(C)C(=O)C1(N2CCCC2)CCN(CC[C@H](CN(C)C(=O)c2ccccc2)c2ccc(Cl)c(Cl)c2)CC1 , please. 0.0631

Tell me the measured Ki of CN(C)C(=O)C1(N2CCCCC2)CCN(CCC(CN(C)C(=O)Cc2ccncc2)c2ccc(Cl)c(Cl)c2)CC1 (centres unmarked) , please. 0.00631

Tell me the measured Ki of CC(=O)N1CCC(C(=O)N(C)CC(CCN2CCC(C(=O)N(C)C)(N3CCCCC3)CC2)c2ccc(Cl)c(Cl)c2)CC1 (centres unmarked) , please. 0.0126

Tell me the measured Ki of CN(C)C(=O)C1(N2CCCCC2)CCN(CC[C@H](CN(C)C(=O)c2ccccc2)c2ccc(Cl)c(Cl)c2)CC1 , please. 0.00251

Tell me the measured Ki of CN(C)C(=O)C1(N2CCCCC2)CCN(CCC(CN(C)C(=O)Cc2ccc(-c3ccccc3)cc2)c2ccc(Cl)c(Cl)c2)CC1 (centres unmarked) , please. 0.0316

Tell me the measured Ki of CN(C)C(=O)C1(N2CCCCC2)CCN(CCC(CN(C)C(=O)c2ccc3c(c2)OC(F)(F)O3)c2ccc(Cl)c(Cl)c2)CC1 (centres unmarked) , please. 0.02

Tell me the measured Ki of CN(C)C(=O)C1(N2CCCCC2)CCN(CCC(CN(C)C(=O)c2ccco2)c2ccc(Cl)c(Cl)c2)CC1 (centres unmarked) , please. 0.0398

Tell me the measured Ki of CN(C)C(=O)C1(N2CCCCC2)CCN(CCC(CN(C)C(=O)c2ccc(Cl)cc2)c2ccc(Cl)c(Cl)c2)CC1 (centres unmarked) , please. 0.0398

Tell me the measured Ki of CN(C)C(=O)C1(N2CCCCC2)CCN(CCC(CN(C)C(=O)c2ccc(OC(F)(F)F)cc2)c2ccc(Cl)c(Cl)c2)CC1 (centres unmarked) [compound 26] , please. 0.0501

Tell me the measured Ki of CN(C)C(=O)C1(N2CCCCC2)CCN(CCC(CN(C)C(=O)c2cccc(F)c2)c2ccc(Cl)c(Cl)c2)CC1 (centres unmarked) , please. 0.02

Tell me the measured Ki of CN(C)C(=O)C1(N2CCCCC2)CCN(CCC(CN(C)C(=O)c2c(Cl)cccc2Cl)c2ccc(Cl)c(Cl)c2)CC1 (centres unmarked) , please. 0.0501

Tell me the measured Ki of CN(C)C(=O)C1(N2CCCCC2)CCN(CCC(CN(C)C(=O)Cc2cccnc2)c2ccc(Cl)c(Cl)c2)CC1 (centres unmarked) , please. 0.01

Tell me the measured Ki of CN(C)C(=O)C1(N2CCCC2)CCN(CCC(CN(C)C(=O)c2cc(C#N)cc3ccccc23)c2ccc(Cl)c(Cl)c2)CC1 (centres unmarked) , please. 0.0631

----------
Field: Kb. Provide a value for each of the compounds that follow.
molecular target: UniProt P25103; test: Functional cellular test, Ca2+ measurements using FLIPR for NK1 activity; type: cell-based; set-up: expressed in transfected cells; host or cells: CHO fibroblast cells; conditions: read-out: pA2 data for NK1 (converted)
Sequence (P25103 whole entry): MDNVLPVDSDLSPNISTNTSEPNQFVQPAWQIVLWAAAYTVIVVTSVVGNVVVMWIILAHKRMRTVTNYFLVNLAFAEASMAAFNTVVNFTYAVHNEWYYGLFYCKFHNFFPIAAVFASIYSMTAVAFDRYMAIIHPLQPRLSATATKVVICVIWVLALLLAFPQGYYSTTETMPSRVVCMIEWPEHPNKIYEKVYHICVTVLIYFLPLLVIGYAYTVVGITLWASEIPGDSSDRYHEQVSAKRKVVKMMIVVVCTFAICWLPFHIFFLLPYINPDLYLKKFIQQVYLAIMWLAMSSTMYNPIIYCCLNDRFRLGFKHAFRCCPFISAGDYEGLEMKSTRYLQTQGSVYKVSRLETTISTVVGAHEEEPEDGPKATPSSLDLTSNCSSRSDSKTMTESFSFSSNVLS
Answer format: numeric, nM implied, no suffix.

Tell me the measured Kb of CNC(=O)C1(N2CCCCC2)CCN(CCC(CN(C)C(=O)c2cc(C#N)cc3ccccc23)c2ccc(Cl)c(Cl)c2)CC1 (centres unmarked) , please. 7.94

Tell me the measured Kb of CN(C)C(=O)C1(N2CCCCC2)CCN(CCC(CN(C)C(=O)c2cc(Cl)ccc2F)c2ccc(Cl)c(Cl)c2)CC1 (centres unmarked) , please. 79.4

Tell me the measured Kb of CCC(=O)N(CC1CC1)C1CCN(CC[C@H](CN(C)C(=O)c2ccccc2)c2ccc(Cl)c(Cl)c2)CC1 , please. 31.6

Tell me the measured Kb of CN(C)C(=O)C1(N2CCCCC2)CCN(CCC(CN(C)C(=O)C2CCCC2)c2ccc(Cl)c(Cl)c2)CC1 (centres unmarked) , please. 1.26

Tell me the measured Kb of CN(C[C@@H](CCN1CCC(C(=O)N2CCCC2)(N2CCCC2)CC1)c1ccc(Cl)c(Cl)c1)C(=O)c1ccccc1 , please. 31.6

Tell me the measured Kb of CN(C[C@@H](CCN1CCC(C(=O)N2CCCCC2)(N2CCCCC2)CC1)c1ccc(Cl)c(Cl)c1)C(=O)c1ccccc1 , please. 20

Tell me the measured Kb of CN(C)C(=O)C1(N2CCCC2)CCN(CCC(CN(C)C(=O)c2cc(C#N)cc3ccccc23)c2ccc(Cl)c(Cl)c2)CC1 (centres unmarked) , please. 1.58

Tell me the measured Kb of CN(C[C@@H](CCN1CCC(C(=O)N2CCCC2)(N2CCCC2)CC1)c1ccc(Cl)c(Cl)c1)C(=O)c1cc(C#N)cc2ccccc12 , please. 2

Tell me the measured Kb of CN(C)C(=O)C1(N2CCN(CC[C@H](CN(C)C(=O)c3ccccc3)c3ccc(Cl)c(Cl)c3)CC2)CCCCC1 , please. 31.6

Tell me the measured Kb of CN(C)C(=O)C1(N2CCCCC2)CCN(CC[C@H](CN(C)C(=O)c2ccccc2)c2ccc(Cl)c(Cl)c2)CC1 , please. 7.94

Tell me the measured Kb of CN(C)C(=O)C1(N2CCCC2)CCN(CC[C@H](CN(C)C(=O)c2ccccc2)c2ccc(Cl)c(Cl)c2)CC1 , please. 50.1

----------
target: NK2-receptor (Cavia porcellus, UniProt Q64077); construct: from tissue; host or cells: whole animal (Pirbright-White guinea pigs), in vivo; test: NK2-receptor-antagonistic effectiveness in vivo, NKA-induced late hypotension, bronchoconstriction and colonic pressure in anaesthetised guinea pigs; conditions: guinea pig, iv, read-out: ED50 iv after 1 min (cumulative), NK2 (bronchoconstriction)
Sequence (Q64077 whole entry): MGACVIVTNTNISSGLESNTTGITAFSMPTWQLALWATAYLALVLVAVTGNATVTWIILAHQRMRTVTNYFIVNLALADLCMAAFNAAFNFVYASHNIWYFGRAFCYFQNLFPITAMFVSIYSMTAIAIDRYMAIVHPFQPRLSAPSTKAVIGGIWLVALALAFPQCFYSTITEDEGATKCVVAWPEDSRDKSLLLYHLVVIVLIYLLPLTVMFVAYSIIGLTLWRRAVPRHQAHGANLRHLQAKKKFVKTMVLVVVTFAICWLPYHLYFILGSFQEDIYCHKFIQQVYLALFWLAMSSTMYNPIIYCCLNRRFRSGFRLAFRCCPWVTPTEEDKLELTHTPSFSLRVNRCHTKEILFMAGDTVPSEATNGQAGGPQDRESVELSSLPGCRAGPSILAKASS
Field: ED50. Provide a value for each of the compounds that follow.
Answer format: numeric, µmol/kg implied, no suffix.

Tell me the measured ED50 of CN(C)C(=O)C1(N2CCCCC2)CCN(CCC(CN(C)C(=O)c2ccc(Cl)nc2)c2ccc(Cl)c(Cl)c2)CC1 (stereo not shown) , please. 0.18

Tell me the measured ED50 of CN(C)C(=O)C1(N2CCCCC2)CCN(CC[C@H](CN(C)C(=O)c2ccc(O)cc2)c2ccc(Cl)c(Cl)c2)CC1 , please. 0.06

Tell me the measured ED50 of CN(C)C(=O)C1(N2CCCCC2)CCN(CC[C@H](CN(C)C(=O)c2ccccc2)c2ccc(Cl)c(Cl)c2)CC1 , please. 0.033

Tell me the measured ED50 of CN(C)C(=O)C1(N2CCCCC2)CCN(CCC(CN(C)C(=O)c2cccnc2)c2ccc(Cl)c(Cl)c2)CC1 (stereo not shown) , please. 0.093

----------
Target: NK3-receptor (Cavia porcellus)
Construct: from tissue; host or cells: whole animal (Dunkin Hartley guinea pigs), in vivo
Sequence (P30098 1-440): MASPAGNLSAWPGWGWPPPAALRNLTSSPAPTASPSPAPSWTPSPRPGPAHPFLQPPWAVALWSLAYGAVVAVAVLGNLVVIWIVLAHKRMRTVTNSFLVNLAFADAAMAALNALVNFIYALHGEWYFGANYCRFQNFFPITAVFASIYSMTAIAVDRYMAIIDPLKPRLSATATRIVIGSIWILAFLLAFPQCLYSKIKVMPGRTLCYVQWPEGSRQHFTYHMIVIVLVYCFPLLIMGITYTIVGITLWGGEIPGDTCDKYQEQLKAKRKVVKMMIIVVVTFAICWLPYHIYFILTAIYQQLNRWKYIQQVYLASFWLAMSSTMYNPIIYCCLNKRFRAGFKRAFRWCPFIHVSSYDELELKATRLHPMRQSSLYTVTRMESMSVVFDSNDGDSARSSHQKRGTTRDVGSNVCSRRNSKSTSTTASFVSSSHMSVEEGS
Assay: NK-3-receptor-antagonistic effectiveness in vivo, senktide-induced hypertension in guinea pigs
Details: guinea pig, iv; read-out: ID50 (iv), inhibition of blood pressure
assayEndpoint: log10 of ED50 (log10 of the value in mg/kg)
Please interpret these as log10 of ED50 where ED50 is in mg/kg.

Tell me the measured log10 of ED50 of CN(C)C(=O)C1(N2CCCCC2)CCN(CC[C@H](CN(C)C(=O)c2ccccc2)c2ccc(Cl)c(Cl)c2)CC1 , please. -0.59

Tell me the measured log10 of ED50 of CN(C)C(=O)C1(N2CCCCC2)CCN(CC[C@H](CN(C)C(=O)c2ccc(O)cc2)c2ccc(Cl)c(Cl)c2)CC1 , please. -0.80

Tell me the measured log10 of ED50 of CN(C)C(=O)C1(N2CCCCC2)CCN(CCC(CN(C)C(=O)c2ccc(Cl)nc2)c2ccc(Cl)c(Cl)c2)CC1 (centres unmarked) , please. 0.00

Tell me the measured log10 of ED50 of CNC(=O)C1(N2CCCCC2)CCN(CC[C@H](CN(C)C(=O)c2ccccc2)c2ccc(Cl)c(Cl)c2)CC1 , please. 0.30

Tell me the measured log10 of ED50 of CN(C)C(=O)C1(N2CCCCC2)CCN(CCC(CN(C)C(=O)c2cccnc2)c2ccc(Cl)c(Cl)c2)CC1 (centres unmarked) , please. -0.41
